The origin of these recorded values is ChEMBL document CHEMBL1201862.

tested on: SF-295; assay: NCI tumour cell line growth inhibition, 48 h
Active and inactive are the calls of the source. Cut-off read from the data, not from the text of the source: active = GI50 up to about 1.1 µM and inactive = higher.
Measured GI50, listed per entry for reference.

CC[C@@H](C)[C@H](NC(=O)[C@H](Cc1ccccc1)NCC(F)(F)F)C(=O)OC(C)(C)C :: > 100 µM (inactive)

Which GI50 value is on record for `Nc1n[n+](CC(=O)c2ccccc2)c2sc(-c3ccccc3)nn12` ? 64.7 µM (inactive)

Also `Cc1c(-c2ccccc2)c(C#N)c2nnc(C(N)=O)c(N)n12` ? > 100 µM (inactive)

Try the compound N=C(N)N/N=C(/c1nc2ccc([N+](=O)[O-])cc2[nH]c1=O)C(O)c1ccc([N+](=O)[O-])cc1 (stereo not given) > 100 µM (inactive)

Same again, this time with `COC(=O)c1c(C(=O)OC)c2ccccn2c1-c1cc(OC)c(Br)c(=O)o1` > 100 µM (inactive)

Input `CCCCCC(=O)c1ccc2[nH]c3c(C)cc([N+](=O)[O-])c(C)c3c2c1` 94.6 µM (inactive)

Next up: N=c1c2c(ncn1N)Oc1c(c(-c3ccccc3)nn1-c1ccccc1)C2c1ccc(Cl)cc1 (stereo not given) 1.66 µM (inactive)

Here is the next compound: `O=C[C@@H](CO)O[C@H](C=O)c1c[nH]c(=O)[nH]c1=O` 146 µM (inactive)

Please give the result for COC(=O)C1(C(=O)OC)N=C(C)OC1c1ccccn1 (stereo not given) too. > 100 µM (inactive)

Check `CN(C)CCNS(=O)(=O)c1ccc(N)cc1` too. > 100 µM (inactive)
